# assay remarks: AUC (0 to t) in ICR mouse at 3 mg/kg, iv measured for 24 hrs by LC-MS/MS analysis
# Format: ADME, organism-based
# Set-up: dose 3 mg/kg, time 24 hrs, route iv
# experimental parameters: in vivo
value type: AUC(0-t) at 24 h (ng·h/mL)
# number only, unit ng·h/mL dropped from output

Give AUC(0-t) at 24 h for the following compound: C=CC(=O)N1CCN(c2nc(OC[C@@]34CCCN3C[C@H](F)C4)nc3c2cc(-c2cccc4cccc(C)c24)n3C)C[C@@H]1CC#N
801

* * *

# assay remarks: Half life in ICR mouse at 3 mg/kg, iv measured for 24 hrs by LC-MS/MS analysis
# Format: ADME, organism-based
# experimental parameters: in vivo
value type: half-life (min)
# number only, unit min dropped from output

Give half-life for the following molecule: C=CC(=O)N1CCN(c2nc(OC[C@@]34CCCN3C[C@H](F)C4)nc3c2cc(-c2cccc4cccc(C)c24)n3C)C[C@@H]1CC#N
55.8

* * *

# assay remarks: Half life in ICR mouse at 30 mg/kg, po measured for 24 hrs by LC-MS/MS analysis
# Type: ADME, organism-based
# experimental parameters: in vivo
value type: half-life
Please make sure the unit comes right after the number.

Give half-life for the following compound: C=CC(=O)N1CCN(c2nc(OC[C@@]34CCCN3C[C@H](F)C4)nc3c2cc(-c2cccc4cccc(C)c24)n3C)C[C@@H]1CC#N
4.79 h

* * *

For each entry below, report its IC50 value.
# test target: SOS1-KRAS (Homo sapiens, UniProt P01116, G12C)
# Sequence (P01116 whole entry G12C, looked up): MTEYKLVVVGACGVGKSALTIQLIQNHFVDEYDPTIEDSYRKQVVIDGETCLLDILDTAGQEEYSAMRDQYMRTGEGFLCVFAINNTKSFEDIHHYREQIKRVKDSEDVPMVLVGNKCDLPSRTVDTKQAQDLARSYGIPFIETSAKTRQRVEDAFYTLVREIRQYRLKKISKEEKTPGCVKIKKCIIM
# assay remarks: Inhibition of KRAS G12C mutant/SOS1 (unknown origin) interaction incubated for 2 hrs in presence of GTP by HTRF assay
# number only, unit µM dropped from output

Give IC50 for the following compound: C=CC(=O)N1CCN(c2nc(OC[C@@]34CCCN3C[C@H](F)C4)nc3c2cc(-c2cccc4cccc(C)c24)n3C)C[C@@H]1CC#N
0.21

Give IC50 for the following compound: C=CC(=O)N1CCN(c2nc(OCC34CCCN3CCC4)nc3c2cc(-c2cccc4cccc(C)c24)n3C)C[C@@H]1CC#N
0.34

* * *

# assay remarks: AUC (0 to infinity) in ICR mouse at 30 mg/kg, po measured for 24 hrs by LC-MS/MS analysis
# Assay type: ADME, organism-based
# Parameters: time 24 hrs, dose 30 mg/kg, route po
# experimental parameters: in vivo
value type: AUC(0-inf) (µg·h/mL)
# number only, unit µg·h/mL dropped from output

Give AUC(0-inf) for the following compound: C=CC(=O)N1CCN(c2nc(OC[C@@]34CCCN3C[C@H](F)C4)nc3c2cc(-c2cccc4cccc(C)c24)n3C)C[C@@H]1CC#N
0.835

* * *

For each entry below, report its IC50 value.
# test target: SOS1-KRAS (Homo sapiens, UniProt P01116, G12C)
# assay remarks: Inhibition of KRAS G12C mutant/SOS1 (unknown origin) interaction incubated for 2 hrs in presence of GTP by HTRF assay

Give IC50 for the following compound: C=CC(=O)N1CCN(c2nc(OC[C@@H]3CCCN3C)nc3c2cc(-c2cc(OC)cc4ccccc24)n3C)C[C@@H]1CC#N
> 10 µM

Give IC50 for the following compound: C=CC(=O)N1CCN(c2nc(NCCN(C)C)nc3c2cc(-c2cccc4cccc(C)c24)n3C)C[C@@H]1CC#N
> 10 µM

Give IC50 for the following compound: C=CC(=O)N1CCN(c2nc(OCCN(C)C)nc3c2cc(-c2cccc4cccc(C)c24)n3C)C[C@@H]1CC#N
> 10 µM

Give IC50 for the following compound: C=CC(=O)N1CCN(c2nc(OC[C@@H]3CCCN3C)nc3c2cc(-c2cccc4cccc(OC)c24)n3C)C[C@@H]1CC#N
> 10 µM

Give IC50 for the following compound: C=CC(=O)N1CCN(c2nc(OC[C@@H]3CCCN3C)nc3c2cc(-c2ccc4[nH]ncc4c2)n3C)C[C@@H]1CC#N
> 10 µM

Give IC50 for the following compound: C=CC(=O)N1CCN(c2nc(OC[C@@H]3CCCN3C)nc3c2cc(-c2cccc4cccc(C)c24)n3C)C[C@@H]1CC#N
1.54 µM

Give IC50 for the following compound: C=CC(=O)N1CCN(c2nc(OC[C@@H]3CCCN3C)nc3c2cc(-c2cc(O)cc4ccccc24)n3C)C[C@@H]1CC#N
2.04 µM

* * *

# test target: SOS1-KRAS (Homo sapiens, UniProt P01116, G12C)
# assay remarks: Inhibition of KRAS G12C mutant/SOS1 (unknown origin) interaction incubated for 2 hrs in presence of GTP by HTRF assay
For each entry below, report its pIC50 value.
Please keep in mind that pIC50 is minus log10 of the molar concentration; only the number is needed.

Give pIC50 for the following compound: C=CC(=O)N1CCN(c2nc(OC[C@@H]3CCCN3C)nc3c2cc(-c2cccc4cccc(O)c24)n3C)C[C@@H]1CC#N
5.49

Give pIC50 for the following compound: C=CC(=O)N1CCN(c2nc(OC[C@H]3CCCN3C)nc3c2cc(-c2cccc4cccc(C)c24)n3C)C[C@@H]1CC#N
5.71

* * *

# assay remarks: AUC (0 to t) in ICR mouse at 30 mg/kg, po measured for 24 hrs by LC-MS/MS analysis
# Format: ADME, organism-based
# Set-up: dose 30 mg/kg, time 24 hrs, route po
# experimental parameters: in vivo
value type: AUC(0-t) at 24 h (ng·h/mL)
# number only, unit ng·h/mL dropped from output

Give AUC(0-t) at 24 h for the following compound: C=CC(=O)N1CCN(c2nc(OC[C@@]34CCCN3C[C@H](F)C4)nc3c2cc(-c2cccc4cccc(C)c24)n3C)C[C@@H]1CC#N
600

* * *

# assay remarks: Clearance in ICR mouse at 3 mg/kg, iv measured for 24 hrs by LC-MS/MS analysis
# Type: ADME, organism-based
# experimental parameters: in vivo
value type: clearance
Please make sure the unit comes right after the number.

Give clearance for the following compound: C=CC(=O)N1CCN(c2nc(OC[C@@]34CCCN3C[C@H](F)C4)nc3c2cc(-c2cccc4cccc(C)c24)n3C)C[C@@H]1CC#N
62.3 mL/min/kg

* * *

# assay remarks: C0 in ICR mouse at 3 mg/kg, iv measured for 24 hrs by LC-MS/MS analysis
# Assay type: ADME, organism-based
# experimental parameters: in vivo
value type: C0 at 24 h
Please make sure the unit comes right after the number.

Give C0 at 24 h for the following compound: C=CC(=O)N1CCN(c2nc(OC[C@@]34CCCN3C[C@H](F)C4)nc3c2cc(-c2cccc4cccc(C)c24)n3C)C[C@@H]1CC#N
1960 ng/mL

* * *

# test target: SOS1-KRAS (Homo sapiens, UniProt P01116, G12C)
# assay remarks: Inhibition of KRAS G12C mutant/SOS1 (unknown origin) interaction incubated for 2 hrs in presence of GTP by HTRF assay
value type: IC50

Name the value of IC50 reported for C=CC(=O)N1CCN(c2nc(N3CCOCC3)nc3c2cc(-c2cccc4cccc(C)c24)n3C)C[C@@H]1CC#N when tested on SOS1-KRAS (Homo sapiens, UniProt P01116, G12C).
> 10 µM

Name the value of IC50 reported for C=CC(=O)N1CCN(c2nc(OCCN(C(C)C)C(C)C)nc3c2cc(-c2cccc4cccc(C)c24)n3C)C[C@@H]1CC#N when tested on SOS1-KRAS (Homo sapiens, UniProt P01116, G12C).
> 10 µM

Name the value of IC50 reported for C=CC(=O)N1CCN(c2nc(OC[C@@H]3CCCN3C)nc3c2cc(-c2c(C)ccc4[nH]ncc24)n3C)C[C@@H]1CC#N when tested on SOS1-KRAS (Homo sapiens, UniProt P01116, G12C).
> 10 µM
